Tested on: ACHN renal
Method Description: NCI tumour cell line growth inhibition, 48 h; in the data active = GI50 below about 0.43 µM; inactive = the rest
Permitted responses: T (active), F (inactive)

• CCC(=O)N1C/C(=C/c2ccc(Br)cc2)C(=O)/C(=C/c2ccc(Br)cc2)C1 = F
• OC1CCCC2CCC[N-]C12.OC1CCCC2CCC[N-]C12.[O]=[V][OH] (configuration not stated) = F
• Fc1ccc(-c2nn3ccccc3c2-c2ccncc2)cc1 = F
• CN(C)Cc1ccc(NC(=O)c2cncc(C#Cc3cnc(N)c4ncccc34)c2)cc1F = F

Name the outcome recorded for `Cc1ccc(Cl)c(NS(=O)(=O)c2ccc(-c3cnc(C4CC4)o3)cc2)c1` in the assay.
T

Name the outcome recorded for `CCCCOc1ccc(/C=N/Nc2cc(C)nc3ccc(Br)cc23)cc1` in the assay.
F

Name the outcome recorded for `Cc1nc2sc3c(N)ncnc3c2c(C)c1C` in the assay.
F

Name the outcome recorded for CCC(C)C1=C(O)[N+]2([O-])Oc3ccc(C4=C(O)C(=O)C(c5ccc(O)cc5)=C(O)C4=O)cc3OC2(C(C)CC)C(=O)N1O (configuration not stated) in the assay.
F

Name the outcome recorded for `COc1ccc2c(O)c(/C=C3\N=Nc4ncccc43)oc2c1C[C@@H]1CCNC[C@H]1F` in the assay.
F

Name the outcome recorded for `N=C(N)c1ccc(-c2ccc(-c3ccc4ccccc4c3)s2)s1` in the assay.
F

Name the outcome recorded for `c1ccc(-c2n(Cc3ccc4ccccc4c3)c3ccccc3[n+]2Cc2ccc3ccccc3c2)cc1` in the assay.
F

Name the outcome recorded for `CCN(CC)c1ccc(-c2cc(-c3cc(OC)c(OC)c(OC)c3)nc(N3CCC(O)CC3)c2C#N)cc1` in the assay.
T
